test system: MCF-10A cells; experiment: Cell growth assay (FluoReporter dsDNA); format: cell-based; details: Homo sapiens, MCF-10A, read-out: IC50 cell growth, only NO2-OA treatment; probenecid study, no probenecid, 0-25 μM 48 hr
READOUT_NAME: pIC50
// pIC50 is dimensionless: -log10 of concentration (M)

Please list pIC50 recorded for the molecule CCCCCCCCC(=CCCCCCCCC(=O)O)[N+](=O)[O-] [NO2-OA, 10-nitro-octadec-9-enoic acid]
4.85

###

system: MCF-10A cells; assay: Cell growth assay (FluoReporter dsDNA); type: cell-based; settings: Homo sapiens, MCF-10A; 48 hr, 0-15 μM; read-out: IC50 cell growth
READOUT_NAME: pIC50
Formally, pIC50 is defined as -log10 of the concentration c, with c in mol/L.

Fill in pIC50 for record `CCCCCCCCC(=CCCCCCCCC(=O)O)[N+](=O)[O-]`
5.11

Data credit: patent US12390435B2
